Biological target: dAsCas12a Ultra (Acidaminococcus sp., UniProt U2UMQ6 1-1307, M537R;F870L;D908A;E993A;D1235A)
Assay: Spec-seq (native PAGE EMSA with sequencing of bound and unbound); 25 mM Tris-HCl pH 7.4, 150 mM KCl, 5 mM MgCl2, 10% glycerol, 1 mM DTT, 40 ng/uL salmon sperm DNA; 400 nM Cas12a, 480 nM crRNA, 50 nM library, 37 C 1 h; native PAGE at room temperature; high values mean tight binding
Settings: protein: recombinant
Reported Metric: binding signal (lnKA)
Write down the numeric answer in lnKA and omit the unit.

{"Binder": "GGTC (dsDNA) DNA 1: GCTATCTAGTGCTCAGTACGCACTGGGTCAGGAAACTTCTGGCAGGACCAGGTCATGAGATCGGAAGAGCACACGTCTGAACTCCAGTCA DNA 2: TGACTGGAGTTCAGACGTGTGCTCTTCCGATCTCATGACCTGGTCCTGCCAGAAGTTTCCTGACCCAGTGCGTACTGAGCACTAGATAGC RNA: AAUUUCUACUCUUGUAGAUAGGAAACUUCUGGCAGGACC", "Endpoint Unit": "lnKA", "binding signal": -8.4}

Now look at this entry.
# input Read off the recorded binding signal for TCGT (dsDNA) DNA 1: GCTATCTAGTGCTCAGTACGCACTGTCGTAGGAAACTTCTGGCAGGACCAGGTCATGAGATCGGAAGAGCACACGTCTGAACTCCAGTCA DNA 2: TGACTGGAGTTCAGACGTGTGCTCTTCCGATCTCATGACCTGGTCCTGCCAGAAGTTTCCTACGACAGTGCGTACTGAGCACTAGATAGC RNA: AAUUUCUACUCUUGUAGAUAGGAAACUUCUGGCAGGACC
# output -8.83
